Data credit: patent US20070270418A1

- ASSAYED SYSTEM: p38α (Homo sapiens)
- Construct: p38 MAP Kinases are recombinant human full-length proteins with an amino-terminal GST fusion; GST (N)
- Sequence (Q16539 whole entry, the tested form may be a part): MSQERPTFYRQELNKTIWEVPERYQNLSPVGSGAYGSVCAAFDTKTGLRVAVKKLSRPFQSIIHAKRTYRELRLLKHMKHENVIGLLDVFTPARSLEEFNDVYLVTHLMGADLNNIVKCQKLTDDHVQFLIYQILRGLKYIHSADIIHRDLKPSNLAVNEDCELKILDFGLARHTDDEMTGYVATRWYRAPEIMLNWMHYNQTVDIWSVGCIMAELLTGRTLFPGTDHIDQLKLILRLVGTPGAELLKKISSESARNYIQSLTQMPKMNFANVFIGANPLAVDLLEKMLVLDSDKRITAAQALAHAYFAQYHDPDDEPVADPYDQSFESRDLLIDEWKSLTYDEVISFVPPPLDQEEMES
- ASSAY TEXT: p38 MAP Kinase assay, ATF2 phosphorylation (ELISA)
- APPLIED CONDITIONS: 40 μM ATP
This listing pairs compounds with measured pIC50.
Note: pIC50 values are expressed as the negative base-10 logarithm of concentration in M.

Recorded pIC50, per entry:
CC(C)(C)OC(=O)N1CCC(CNc2nccc(-c3c(-c4ccc(F)cc4)nc4sccn34)n2)CC1 : 7.06
Fc1ccc(-c2nc3sccn3c2-c2ccnc(NCCN3CCCCC3)n2)cc1 : 7.09
CC(C)(C)OC(=O)N1CCC(Nc2nccc(-c3c(-c4ccc(F)cc4)nc4sccn34)n2)CC1 : 8.65
CC[C@H](CO)Nc1nccc(-c2c(-c3ccc(F)cc3)nc3sccn23)n1 : 8.68
Fc1ccc(-c2nc3occn3c2-c2ccnc(NCCCN3CCOCC3)n2)cc1 : 6.44
C[C@H](Nc1nccc(-c2c(-c3ccc(F)cc3)nc3occn23)n1)[C@H](O)c1ccccc1 : 7.41
Fc1ccc(-c2nc3occn3c2-c2ccnc(NC3CCNCC3)n2)cc1 : 7.88
C[C@H](O)[C@H](CO)Nc1nccc(-c2c(-c3ccc(F)cc3)nc3occn23)n1 : 8.06
Fc1ccc(-c2nc3sccn3c2-c2ccnc(NCc3cccs3)n2)cc1 : 8.21
Fc1ccc(-c2nc3occn3c2-c2ccnc(N3CCOCC3)n2)cc1 : 7.15

[Q] Param item = OCCN(CCO)CCNc1nccc(-c2c(-c3ccc(F)cc3)nc3occn23)n1 ; retrieve measured pIC50.
[A] 6.43

[Q] Another: Fc1ccc(-c2nc3occn3c2-c2ccnc(NCC3CC3)n2)cc1
[A] 8.37

[Q] Another: CN1CCCC1CCNc1nccc(-c2c(-c3ccc(F)cc3)nc3occn23)n1 (stereo not shown)
[A] 6.19

[Q] Another: CN1[C@@H]2CC[C@H]1C[C@@H](Nc1nccc(-c3c(-c4ccccc4Cl)nc4occn34)n1)C2
[A] 8.17

[Q] Another: O=C1OCC[C@H]1Nc1nccc(-c2c(-c3ccc(F)cc3)nc3occn23)n1
[A] 6.34

[Q] Another: CS(=O)(=O)N1CCC(Nc2nccc(-c3c(-c4ccc(F)cc4Cl)nc4occn34)n2)CC1
[A] 9.52

[Q] Another: OCC(CO)Nc1nccc(-c2c(-c3ccc(F)c(F)c3)nc3sccn23)n1
[A] 6.22

[Q] Another: CN(C)CCCNc1nccc(-c2c(-c3ccc(F)cc3)nc3occn23)n1
[A] 6.46
